System: SNB-19
Assay Text: NCI tumour cell line growth inhibition, 48 h
Active and inactive are the calls of the source. No stated cut-off is given here; in the data, active = GI50 up to about 1.1 µM and inactive = higher.
# GI50 values compiled below

(Q) Reported GI50 for COc1ccccc1C(=O)OCC1CCCN2CCCCC12 (configuration not stated) : what is it?
(A) 35.9 µM (inactive)

(Q) Proceed to Cc1c(O)c(=O)ccn1CCO
(A) > 100 µM (inactive)

(Q) Proceed to O=C1C=CC(=O)c2c1cc([N+](=O)[O-])c1ccoc21
(A) 21.5 µM (inactive)

***
(Q) Reported GI50 for CCN(CC)CCn1c(=O)c2cccnc2n2c3c(=O)n(C)c(=O)n(C)c3nc12 : what is it?
(A) > 100 µM (inactive)

(Q) Proceed to NC(=S)Nc1nc(=S)[nH]c2[nH]ccc12
(A) > 100 µM (inactive)

(Q) Proceed to O=C1OC(C2Cc3ccc4c(c3C2=O)CCCC4)c2ccccc21 (configuration not stated)
(A) 44.5 µM (inactive)

(Q) Proceed to CCOC(=O)c1cccc([N+](=O)[O-])c1N
(A) > 100 µM (inactive)

###

System: NCI-H226
Assay Text: NCI tumour cell line growth inhibition, 48 h
Calls of active or inactive are those of the source. Rule as the data show it: active = GI50 up to about 1.1 µM and inactive = higher.
Measure: GI50

Known results for compounds:
(Q) Lab note: need GI50 for O=C(c1cc2ccccc2cc1O)N1CCCCC1 on NCI-H226, anyone have it?
(A) 17.8 µM (inactive)

(Q) Proceed to O=C1C=CC(=O)c2c1cc([N+](=O)[O-])c1ccoc21
(A) 26.6 µM (inactive)

***
(Q) Lab note: need GI50 for CN(N=O)C(=N)NC(=O)c1ccccc1 on NCI-H226, anyone have it?
(A) > 100 µM (inactive)

(Q) Proceed to COc1ccc(-n2sc3ncc(C)cc3c2=O)cc1
(A) 26.2 µM (inactive)

(Q) Proceed to COc1cc2c(cc1OC)C(=O)/C(=C/c1cc(OC)c(OC)c(OC)c1)C2
(A) > 100 µM (inactive)

(Q) Proceed to O=C1O[B-](c2ccccc2)(c2ccccc2)[NH2+]C1CS (stereo unspecified)
(A) 68.4 µM (inactive)

###

# GI50 values compiled below
System: SNB-75
Assay Text: NCI tumour cell line growth inhibition, 48 h
Activity calls are given as the source filed them. Rule as the data show it: active = GI50 up to about 1.1 µM and inactive = higher.

(Q) Reported GI50 for CC(=O)OI1NC(=O)c2ccccc21 : what is it?
(A) > 100 µM (inactive)

(Q) Proceed to COC(=O)[C@H](COC(=O)/C=C/c1ccc(OC(C)=O)c(OC(C)=O)c1)NC(=O)/C=C/c1ccc(OC(C)=O)c(OC(C)=O)c1
(A) 14.6 µM (inactive)

(Q) Proceed to COc1ccc(CCNC(=O)Cc2ccccc2CCO)cc1OC
(A) > 100 µM (inactive)

(Q) Proceed to Cc1cc(S(=O)(=O)O)c(NC(=O)c2oc3cc(O)ccc3c(=O)c2C)cc1Cl
(A) > 100 µM (inactive)

(Q) Proceed to Cc1cc2c(=O)c3ccc(Cl)cc3[nH]c2c(C(N)=O)c1C
(A) 35.5 µM (inactive)

(Q) Proceed to SC1=NC2=C(CSC/C2=C\c2cccc(Br)c2)C(c2cccc(Br)c2)N1 (stereo not drawn)
(A) 41.6 µM (inactive)

(Q) Proceed to Cc1cc2c(cc1C)OC(=O)CC2
(A) > 100 µM (inactive)

(Q) Proceed to CC(=O)Nc1ccc(C(=O)NN2C(=O)C(Cl)C2c2ccc([N+](=O)[O-])cc2)cc1 (stereo not drawn)
(A) > 100 µM (inactive)

(Q) Proceed to Nc1nc(Cl)cc(NCC2(CO)CC(CCCCc3ccccc3)C2)n1 (stereo not drawn)
(A) 81.3 µM (inactive)

(Q) Proceed to COC(=O)/C(C#N)=C(\N)C(Cl)(Cl)Cl
(A) 3.85 µM (inactive)

(Q) Proceed to NC(CCSC(F)F)C(=O)O (stereo not drawn)
(A) > 100 µM (inactive)

(Q) Proceed to CCCCCCCCCCCCCCCC(=O)OCC(O)C1OC(=O)C(O)=C1O (stereo not drawn)
(A) 16.1 µM (inactive)

(Q) Proceed to CC(=O)NNc1nc(C)c(C(/C=C/c2cccc([N+](=O)[O-])c2)=N/NC(=S)NN)s1
(A) > 100 µM (inactive)

(Q) Proceed to CSc1cc(Cl)c(C)cc1S(=O)(=O)NC(=O)NNc1ccc(C)cc1
(A) 8.26 µM (inactive)

(Q) Proceed to O=C(O)c1cccc(F)c1C(=O)c1ccc2ccccc2c1
(A) 73.1 µM (inactive)

(Q) Proceed to Cc1ccccc1Nc1nc(NNC(=O)Cc2ccccc2)nc(NNC(=O)c2ccncc2)n1
(A) > 10 µM (inactive)

(Q) Proceed to COc1ccc(CNc2cnc3cc(N)ccc3n2)cc1OC
(A) > 100 µM (inactive)

(Q) Proceed to NC(=O)C(=Cc1ccc(CP(=O)(O)O)cc1)C(N)=O
(A) > 100 µM (inactive)

(Q) Proceed to COC(=O)c1ccc2n1C1CC3CC(CC2C3)C1
(A) > 100 µM (inactive)

(Q) Proceed to Cc1ccc2nc3c(C(=O)NCCN(C)C)cccc3cc2c1
(A) 2.99 µM (inactive)

(Q) Proceed to CN(N=O)C(=N)NC(=O)c1ccccc1
(A) 51.5 µM (inactive)

(Q) Proceed to CCOC(=O)c1cccc([N+](=O)[O-])c1N
(A) 62.1 µM (inactive)

(Q) Proceed to CC(=O)NC1C(OCc2ccccc2)OC(CO)C(O)C1OCC(=O)NC(C)C(=O)NC(CCC(=O)Nc1ccc2c(c1)CN1C(=O)c3ccccc3C1=N2)C(N)=O (stereo not drawn)
(A) > 100 µM (inactive)

(Q) Proceed to OCCCSc1ccccc1SCCCO
(A) 17.2 µM (inactive)
